Tested on: P-glycoprotein
Test: [125I]iodomycin photolabelling of Pgp in EHR2/DNR+ cells
Assay type: binding, mice
Conditions: 20 µM drug, iodomycin 10 nM
Description: Br. J. Cancer (1993), 67, 226 231 ? […] Anthracycline inter-actions with Pgp were assessed using the specific photolabelling of the protein with [251I]iodomycin, a ['251]iodinated Bolton-Hunter derivative of DNR (Busche et al., 1989a) and with [3H]azidopine ([3H]AZP) which photolabels Pgp in plasma membrane vesicles from EHR2/ DNR + cells (Sehested et al., 1990) as well as in whole cells (Safa et al., 1987; Friche et al., 1990c). […]
Tag: y if measured Per cent inhibition of [125I]iodomycin photolabelling of Pgp is not below 50%, n if it is.

# input Determine whether this compound has Per cent inhibition of [125I]iodomycin photolabelling of Pgp no lower than 50%: CC(=O)[C@]1(O)Cc2c(O)c3c(c(O)c2[C@@H](O[C@H]2C[C@H](N)[C@H](O)[C@H](C)O2)C1)C(=O)c1ccccc1C3=O
# output y

# input Determine whether this compound has Per cent inhibition of [125I]iodomycin photolabelling of Pgp no lower than 50%: CC[C@@]1(O)C[C@H](O[C@H]2C[C@H](N(C)C)[C@H](O[C@H]3C[C@H](O)[C@H](O[C@H]4CCC(=O)[C@H](C)O4)[C@H](C)O3)[C@H](C)O2)c2c(cc3c(c2O)C(=O)c2c(O)cccc2C3=O)[C@H]1C(=O)OC
# output y

# input Determine whether this compound has Per cent inhibition of [125I]iodomycin photolabelling of Pgp no lower than 50%: COc1cccc2c1C(=O)c1c(O)c3c(c(O)c1C2=O)C[C@@](O)(C(=O)CO)C[C@@H]3O[C@H]1C[C@H](N)[C@H](I)[C@H](C)O1
# output n

# input Determine whether this compound has Per cent inhibition of [125I]iodomycin photolabelling of Pgp no lower than 50%: CCCCC(=O)OCC(=O)[C@]1(O)Cc2c(O)c3c(c(O)c2[C@@H](O[C@H]2C[C@H](NCc4ccccc4)[C@H](O)[C@H](C)O2)C1)C(=O)c1c(OC)cccc1C3=O [AD-198, N-benzyladriamycin-14-valerate]
# output y

# input Determine whether this compound has Per cent inhibition of [125I]iodomycin photolabelling of Pgp no lower than 50%: COc1cccc2c1C(=O)c1c(O)c3c(c(O)c1C2=O)C[C@@](O)(C(C)=O)C[C@@H]3OC1CC(N(Cc2ccccc2)Cc2ccccc2)C(O)C(C)O1.Cl (some centres unmarked)
# output y
